Target: Firefly luciferase (Fluc, EC 1.13.12.7) (Photinus pyralis, UniProt P08659)
Sequence (P08659 whole entry): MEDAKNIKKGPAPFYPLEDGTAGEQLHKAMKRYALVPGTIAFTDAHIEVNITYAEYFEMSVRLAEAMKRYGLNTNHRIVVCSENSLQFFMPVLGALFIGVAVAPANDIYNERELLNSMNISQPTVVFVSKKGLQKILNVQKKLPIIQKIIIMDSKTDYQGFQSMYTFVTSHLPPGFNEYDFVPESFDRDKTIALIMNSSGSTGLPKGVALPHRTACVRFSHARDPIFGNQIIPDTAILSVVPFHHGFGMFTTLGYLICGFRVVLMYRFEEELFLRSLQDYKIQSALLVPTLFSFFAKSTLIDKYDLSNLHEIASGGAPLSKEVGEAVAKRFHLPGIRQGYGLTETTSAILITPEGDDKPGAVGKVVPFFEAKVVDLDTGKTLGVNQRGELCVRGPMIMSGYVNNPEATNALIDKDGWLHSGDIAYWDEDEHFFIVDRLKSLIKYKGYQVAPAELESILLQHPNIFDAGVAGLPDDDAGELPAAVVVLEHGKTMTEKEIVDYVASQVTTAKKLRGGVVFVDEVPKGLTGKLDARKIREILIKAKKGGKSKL
Experiment: biochemical
Parameters: single determination (the paper says generally: 'qHTS assays were performed in a single replicate with a 7- to 11-point dose response format'; it is not stated for this counterscreen itself)
Quick rule for you: AC50 under 10 µM gets condition met, anything else gets condition not met.

In: Problem: For the compound Cc1cc(C(N)=NOC(=O)c2ccccc2Cl)no1 [MLS000833967-01] , is AC50 under 10 µM?
Out: condition not met

In: Please state whether AC50 is below 10 µM for Nc1nc(Nc2ccccc2)nc2ccccc12 [MLS000026767-01]
Out: condition not met

In: Answer whether the compound Cc1ccc(-c2nc(C)c(C(=O)O)s2)cc1 [MLS000735996-01] has AC50 strictly less than 10 µM
Out: condition not met

In: Could you please tell me whether AC50 recorded for O=C(O)COc1ccc(-c2nccc(-c3cccs3)n2)cc1 [MLS000331320-01] is less than 10 µM?
Out: condition met

In: Lab log: compare recorded AC50 with 10 µM; is it strictly lower for Cc1ccc2nc(N3C(=O)CNC3=S)sc2c1 [MLS000768544-01] ?
Out: condition not met

In: Input Cc1cc(N2CCN(C)CC2)nc2ccc(NC(=O)Nc3ccccc3Br)cc12 [NCGC00126483-01] ; condition: AC50 strictly below 10 µM. Does it hold?
Out: condition not met

In: Could you please tell me whether AC50 recorded for N=c1n(N)c2ccccc2n1CC(=O)c1ccc(Br)cc1 [MLS001183984-01] is less than 10 µM?
Out: condition not met

In: is_below(AC50, 10 µM) for Cc1nn(-c2ccccc2)c(C)c1/C=N/Nc1nc2ccccc2[nH]1 [MLS000332160-01] ?
Out: condition not met

In: Say whether its AC50 is strictly beneath 10 µM. Entry: Nc1ncnc2c1ncn2[C@@H]1O[C@H](CN[S+](=O)([O-])NC(=O)c2cccc(-c3noc(-c4ccccc4F)n3)c2)[C@@H](O)[C@H]1O [NCGC00183809-01]
Out: condition met
